Known viability, T/C of a selection of compounds
Test system: NCI-H226 complex tumor spheroids, viability
Assay: Anticancer human tumor NCI-H226 cell line growth inhibition;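 note: spheroids exposed to compound for 7 days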;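 for viability, T/C: 100% = DMSO vehicle control viability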
Details: second compound 0.003 µM; first compound 10 µM; stronger effect = lower value
measured.metric: viability, T/C (%)

• COc1cc(C)[nH]c(=O)c1CN1CCc2c(Cl)cc(C(OC)C3COC3)c(Cl)c2C1=O (centres undefined) + CC[C@@]1(O)C(=O)OCc2c1cc1n(c2=O)Cc2cc3c(CN(C)C)c(O)ccc3nc2-1 = 98.5
• CC(C)n1c(=O)n(C)c2cnc3cc(F)c(-c4ccc(OCCCN5CCCCC5)nc4)cc3c21 + COc1cc2c(cc1O)CCNC21CSC2c3c(OC(C)=O)c(C)c4c(c3C(COC1=O)N1C(O)C3Cc5cc(C)c(OC)c(O)c5C(C21)N3C)OCO4 = 1
• COc1ccc([C@@H](O)c2cc(-c3ncnc4cc(N5CCOCC5)ccc34)c(F)cc2Cl)nn1 + COc1cc2c(cc1O)CCNC21CSC2c3c(OC(C)=O)c(C)c4c(c3C(COC1=O)N1C(O)C3Cc5cc(C)c(OC)c(O)c5C(C21)N3C)OCO4 = 1.08
• [2H]c1nc(C)nc([2H])c1-c1cc(NC[C@@H](C)c2cccc3c(C(=O)NC)ccnc23)ncn1 + COc1cc2c(cc1O)CCNC21CSC2c3c(OC(C)=O)c(C)c4c(c3C(COC1=O)N1C(O)C3Cc5cc(C)c(OC)c(O)c5C(C21)N3C)OCO4 = 0.8

* * *

System: NCI-H226 complex tumor spheroids, viability
Experiment: Anticancer human tumor NCI-H226 cell line growth inhibition;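 note: spheroids exposed to compound for 7 days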
Conditions: curve of first compound; second compound 30 pM
measured.metric: IC50

• Cc1cc(C)c(CNC(=O)c2cc(-c3ccc(CN4CCOCC4)cc3)cc3c2cnn3C2CCCC2)c(=O)[nH]1 + COc1cc2c(cc1O)CCNC21CSC2c3c(OC(C)=O)c(C)c4c(c3C(COC1=O)N1C(O)C3Cc5cc(C)c(OC)c(O)c5C(C21)N3C)OCO4 = > 10 µM
• Cc1sc2c(c1C)C(c1ccc(Cl)cc1)=NC(CC(=O)Nc1ccc(O)cc1)c1nnc(C)n1-2 (centres undefined) + COc1cc2c(cc1O)CCNC21CSC2c3c(OC(C)=O)c(C)c4c(c3C(COC1=O)N1C(O)C3Cc5cc(C)c(OC)c(O)c5C(C21)N3C)OCO4 = > 3 µM
• [2H]c1nc(C)nc([2H])c1-c1cc(NC[C@@H](C)c2cccc3c(C(=O)NC)ccnc23)ncn1 + COc1cc2c(cc1O)CCNC21CSC2c3c(OC(C)=O)c(C)c4c(c3C(COC1=O)N1C(O)C3Cc5cc(C)c(OC)c(O)c5C(C21)N3C)OCO4 = > 10 µM
• CNCc1ccc(-c2cc(-c3nc(-c4ccc(S(=O)(=O)C(C)C)cc4)cnc3N)on2)cc1 + COc1cc2c(cc1O)CCNC21CSC2c3c(OC(C)=O)c(C)c4c(c3C(COC1=O)N1C(O)C3Cc5cc(C)c(OC)c(O)c5C(C21)N3C)OCO4 = 1.61 µM

* * *

Tested on: NCI-H226 complex tumor spheroids, viability
Assay: Anticancer human tumor NCI-H226 cell line growth inhibition;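 note: spheroids exposed to compound for 7 days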;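 for viability, T/C: 100% = DMSO vehicle control viability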
Details: second compound 30 pM; first compound 1 µM; stronger effect = lower value
measured.metric: viability, T/C (%)

• CC(C)n1c(=O)n(C)c2cnc3cc(F)c(-c4ccc(OCCCN5CCCCC5)nc4)cc3c21 + COc1cc2c(cc1O)CCNC21CSC2c3c(OC(C)=O)c(C)c4c(c3C(COC1=O)N1C(O)C3Cc5cc(C)c(OC)c(O)c5C(C21)N3C)OCO4 = 110
• COc1cc(C)[nH]c(=O)c1CN1CCc2c(Cl)cc(C(OC)C3COC3)c(Cl)c2C1=O (stereo unspecified) + COc1cc2c(cc1O)CCNC21CSC2c3c(OC(C)=O)c(C)c4c(c3C(COC1=O)N1C(O)C3Cc5cc(C)c(OC)c(O)c5C(C21)N3C)OCO4 = 115
• COc1ccc([C@@H](O)c2cc(-c3ncnc4cc(N5CCOCC5)ccc34)c(F)cc2Cl)nn1 + COc1cc2c(cc1O)CCNC21CSC2c3c(OC(C)=O)c(C)c4c(c3C(COC1=O)N1C(O)C3Cc5cc(C)c(OC)c(O)c5C(C21)N3C)OCO4 = 80.5
• [2H]c1nc(C)nc([2H])c1-c1cc(NC[C@@H](C)c2cccc3c(C(=O)NC)ccnc23)ncn1 + COc1cc2c(cc1O)CCNC21CSC2c3c(OC(C)=O)c(C)c4c(c3C(COC1=O)N1C(O)C3Cc5cc(C)c(OC)c(O)c5C(C21)N3C)OCO4 = 106
• CC1COCCN1c1cc(-c2ccnn2C)c2ccnc(-c3ccn[nH]3)c2n1 (stereo unspecified) + COc1cc2c(cc1O)CCNC21CSC2c3c(OC(C)=O)c(C)c4c(c3C(COC1=O)N1C(O)C3Cc5cc(C)c(OC)c(O)c5C(C21)N3C)OCO4 = 61.3
• Cc1cc(C)c(CNC(=O)c2cc(-c3ccc(CN4CCOCC4)cc3)cc3c2cnn3C2CCCC2)c(=O)[nH]1 + COc1cc2c(cc1O)CCNC21CSC2c3c(OC(C)=O)c(C)c4c(c3C(COC1=O)N1C(O)C3Cc5cc(C)c(OC)c(O)c5C(C21)N3C)OCO4 = 93.8

* * *

Tested on: NCI-H226 complex tumor spheroids, viability
Test: Anticancer human tumor NCI-H226 cell line growth inhibition;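 note: spheroids exposed to compound for 7 days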;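 for viability, T/C: 100% = DMSO vehicle control viability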
Details: second compound 0.0003 µM; first compound 0.0316 µM; stronger effect = lower value
Known viability, T/C of a selection of compounds
measured.metric: viability, T/C (%)

• COc1ccc([C@@H](O)c2cc(-c3ncnc4cc(N5CCOCC5)ccc34)c(F)cc2Cl)nn1 + COc1cc2c(cc1O)CCNC21CSC2c3c(OC(C)=O)c(C)c4c(c3C(COC1=O)N1C(O)C3Cc5cc(C)c(OC)c(O)c5C(C21)N3C)OCO4 = 126
• COc1cc(C)[nH]c(=O)c1CN1CCc2c(Cl)cc(C(OC)C3COC3)c(Cl)c2C1=O (centres undefined) + COc1cc2c(cc1O)CCNC21CSC2c3c(OC(C)=O)c(C)c4c(c3C(COC1=O)N1C(O)C3Cc5cc(C)c(OC)c(O)c5C(C21)N3C)OCO4 = 133
• [2H]c1nc(C)nc([2H])c1-c1cc(NC[C@@H](C)c2cccc3c(C(=O)NC)ccnc23)ncn1 + COc1cc2c(cc1O)CCNC21CSC2c3c(OC(C)=O)c(C)c4c(c3C(COC1=O)N1C(O)C3Cc5cc(C)c(OC)c(O)c5C(C21)N3C)OCO4 = 105
• CC(C)n1c(=O)n(C)c2cnc3cc(F)c(-c4ccc(OCCCN5CCCCC5)nc4)cc3c21 + COc1cc2c(cc1O)CCNC21CSC2c3c(OC(C)=O)c(C)c4c(c3C(COC1=O)N1C(O)C3Cc5cc(C)c(OC)c(O)c5C(C21)N3C)OCO4 = 107

* * *

System: NCI-H226 complex tumor spheroids, viability
Assay: Anticancer human tumor NCI-H226 cell line growth inhibition; active = viability on the fitted dose curve at most 10% of control; inactive = the rest;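 note: spheroids exposed to compound for 7 days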
Details: second compound 0.000949 µM; first compound 3 µM
Outcome codes: 1.0 for active, 0.0 for inactive

• O=C(c1cc(Cc2n[nH]c(=O)c3ccccc23)ccc1F)N1CCN(C(=O)C2CC2)CC1 + COc1cc2c(cc1O)CCNC21CSC2c3c(OC(C)=O)c(C)c4c(c3C(COC1=O)N1C(O)C3Cc5cc(C)c(OC)c(O)c5C(C21)N3C)OCO4 = 0.0
• Cn1ncnc1[C@H]1c2n[nH]c(=O)c3cc(F)cc(c23)N[C@@H]1c1ccc(F)cc1 + COc1cc2c(cc1O)CCNC21CSC2c3c(OC(C)=O)c(C)c4c(c3C(COC1=O)N1C(O)C3Cc5cc(C)c(OC)c(O)c5C(C21)N3C)OCO4 = 0.0
• CNCc1ccc(-c2cc(-c3nc(-c4ccc(S(=O)(=O)C(C)C)cc4)cnc3N)on2)cc1 + COc1cc2c(cc1O)CCNC21CSC2c3c(OC(C)=O)c(C)c4c(c3C(COC1=O)N1C(O)C3Cc5cc(C)c(OC)c(O)c5C(C21)N3C)OCO4 = 1.0
• Cc1sc2c(c1C)C(c1ccc(Cl)cc1)=NC(CC(=O)Nc1ccc(O)cc1)c1nnc(C)n1-2 (centres undefined) + COc1cc2c(cc1O)CCNC21CSC2c3c(OC(C)=O)c(C)c4c(c3C(COC1=O)N1C(O)C3Cc5cc(C)c(OC)c(O)c5C(C21)N3C)OCO4 = 1.0

* * *

Known viability, T/C of a selection of molecules
Test system: NCI-H226 complex tumor spheroids, viability
Assay: Anticancer human tumor NCI-H226 cell line growth inhibition;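 note: spheroids exposed to compound for 7 days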;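 for viability, T/C: 100% = DMSO vehicle control viability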
Details: second compound 0.000949 µM; first compound 1 µM; stronger effect = lower value
measured.metric: viability, T/C (%)

- Cc1cc(C)c(CNC(=O)c2cc(-c3ccc(CN4CCOCC4)cc3)cc3c2cnn3C2CCCC2)c(=O)[nH]1 + COc1cc2c(cc1O)CCNC21CSC2c3c(OC(C)=O)c(C)c4c(c3C(COC1=O)N1C(O)C3Cc5cc(C)c(OC)c(O)c5C(C21)N3C)OCO4: 103
- [2H]c1nc(C)nc([2H])c1-c1cc(NC[C@@H](C)c2cccc3c(C(=O)NC)ccnc23)ncn1 + COc1cc2c(cc1O)CCNC21CSC2c3c(OC(C)=O)c(C)c4c(c3C(COC1=O)N1C(O)C3Cc5cc(C)c(OC)c(O)c5C(C21)N3C)OCO4: 112
- CC(C)n1c(=O)n(C)c2cnc3cc(F)c(-c4ccc(OCCCN5CCCCC5)nc4)cc3c21 + COc1cc2c(cc1O)CCNC21CSC2c3c(OC(C)=O)c(C)c4c(c3C(COC1=O)N1C(O)C3Cc5cc(C)c(OC)c(O)c5C(C21)N3C)OCO4: 120
- CC1COCCN1c1cc(-c2ccnn2C)c2ccnc(-c3ccn[nH]3)c2n1 (stereo unspecified) + COc1cc2c(cc1O)CCNC21CSC2c3c(OC(C)=O)c(C)c4c(c3C(COC1=O)N1C(O)C3Cc5cc(C)c(OC)c(O)c5C(C21)N3C)OCO4: 58.8
- COc1ccc([C@@H](O)c2cc(-c3ncnc4cc(N5CCOCC5)ccc34)c(F)cc2Cl)nn1 + COc1cc2c(cc1O)CCNC21CSC2c3c(OC(C)=O)c(C)c4c(c3C(COC1=O)N1C(O)C3Cc5cc(C)c(OC)c(O)c5C(C21)N3C)OCO4: 36.4
- COc1cc(C)[nH]c(=O)c1CN1CCc2c(Cl)cc(C(OC)C3COC3)c(Cl)c2C1=O (stereo unspecified) + COc1cc2c(cc1O)CCNC21CSC2c3c(OC(C)=O)c(C)c4c(c3C(COC1=O)N1C(O)C3Cc5cc(C)c(OC)c(O)c5C(C21)N3C)OCO4: 115
